The measurements presented in this section are drawn from PubChem BioAssay AID504383.

# Target Or Test System: Troponin I, cardiac muscle (Homo sapiens) + Troponin T, cardiac muscle (Homo sapiens) + Troponin C, slow skeletal and cardiac muscles (Homo sapiens) (UniProt P19429+P45379+P63316)
# Assay Summary: cardiac RTF calcium sensitivity activators, confirmation, biochemical, IANBD-TnC fluorescence, triplicate (AID 504383);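 also: 0% = DMSO at 0.472 mM calcium and 100% = DMSO at 2.9 mM calcium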
# Measurement Context: IANBD-labeled cardiac RTF, Ca2+ sensitivity fluorescence; at 7.2 µM; active compounds read high; scaled from EC20 to saturating calcium; tested at EC20 calcium, 0.472 mM
The whole screen tested about 2,500 compounds, of which about 1,200 (48%) were called active. The set was probably picked from earlier hits. The list shows a part of the results.
Quick reference: activation of the listed items.
# number only, unit % dropped from output

Field: example entries. Status: answers known.
Cn1cc(/C=C/c2cc[n+](C)cc2)c2cc(F)ccc21: 6.92
CN(C)C(CNC(=O)CSc1nc2ccccc2c(=O)n1Cc1ccco1)c1ccccc1 (centres undefined): 12.1
COC(=O)Cn1c(C)c(/C=C/c2cc[n+](C)cc2)c2ccccc21: 12.8

Now let's try a different one.
// "COc1ccc(OC)c(C2=C/C(=C/c3ccccn3)C(=O)O2)c1" : activation value = 6.12
